Cited source for all entries: the supplement of paper PMC3545927

target: furin, P09958; assay: furin cleavage Z-score vs untreated control; higher = more cleavage, active = 3.5 or more, inactive = 1 or less, 8 variable residues between constant flanks; settings: 15 min;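 also: purified furin at 1:10 enzyme:substrate in 50 mM HEPES pH 7.5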
Sequence (P09958 whole entry): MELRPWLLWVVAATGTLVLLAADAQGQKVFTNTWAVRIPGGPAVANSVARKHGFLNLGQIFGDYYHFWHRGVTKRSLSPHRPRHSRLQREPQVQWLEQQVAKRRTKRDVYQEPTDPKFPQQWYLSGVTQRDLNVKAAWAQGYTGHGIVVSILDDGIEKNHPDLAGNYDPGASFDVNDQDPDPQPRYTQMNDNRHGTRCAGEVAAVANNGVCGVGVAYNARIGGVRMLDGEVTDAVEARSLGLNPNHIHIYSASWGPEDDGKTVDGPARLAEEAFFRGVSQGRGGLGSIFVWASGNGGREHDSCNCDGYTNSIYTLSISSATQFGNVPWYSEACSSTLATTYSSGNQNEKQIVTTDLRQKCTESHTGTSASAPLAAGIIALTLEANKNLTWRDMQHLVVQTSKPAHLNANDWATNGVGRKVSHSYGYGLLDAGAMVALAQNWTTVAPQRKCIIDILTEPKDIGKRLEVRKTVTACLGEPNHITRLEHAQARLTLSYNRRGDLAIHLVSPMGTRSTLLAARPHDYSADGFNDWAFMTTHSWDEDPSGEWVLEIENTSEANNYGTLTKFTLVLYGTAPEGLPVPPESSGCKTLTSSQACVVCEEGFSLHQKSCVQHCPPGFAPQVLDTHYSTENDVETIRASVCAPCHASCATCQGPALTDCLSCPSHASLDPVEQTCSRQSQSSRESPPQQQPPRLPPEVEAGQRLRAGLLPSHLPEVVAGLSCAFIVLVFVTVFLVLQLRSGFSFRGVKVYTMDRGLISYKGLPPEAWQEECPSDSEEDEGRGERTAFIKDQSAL
The list shows a part of the results. The true hit rate is not given.
Classification field: 1 (yes) = furin cleavage Z-score at or over 0.5; 0 (no) = furin cleavage Z-score under 0.5.

>  <RECORD_SEQUENCE>
CATGLTHIDAAGNASASA [HC942]

>  <LABEL_VALUE>
0 (no)

$$$$
>  <RECORD_SEQUENCE>
CAYVQMVIIKAGNASASA [HC627]

>  <LABEL_VALUE>
0 (no)

$$$$
>  <RECORD_SEQUENCE>
CARRKRLPEMAGNASASA [FS-1778]

>  <LABEL_VALUE>
0 (no)

$$$$
>  <RECORD_SEQUENCE>
CASARRGREIAGNASASA [HC662]

>  <LABEL_VALUE>
1 (yes)

$$$$
>  <RECORD_SEQUENCE>
CAKKSRKSRPAGNASASA [FS-43]

>  <LABEL_VALUE>
0 (no)

$$$$
>  <RECORD_SEQUENCE>
CARRKREKTQAGNASASA [FS-3165]

>  <LABEL_VALUE>
1 (yes)

$$$$
